The reported measurements were obtained from paper PMC8294059.

target: HLA-DRB1*1101 (Homo sapiens, UniProt P01903+P01911, A100R/A169T/A87E/I96F/K41T/L162R/M171V/P40S/Q125H/Q178H/Q39Y/Q99D/R42S/S66Y/T262R/V115G/W38E)
Sequence (P01903 26-254 limits assumed, other chains not shown): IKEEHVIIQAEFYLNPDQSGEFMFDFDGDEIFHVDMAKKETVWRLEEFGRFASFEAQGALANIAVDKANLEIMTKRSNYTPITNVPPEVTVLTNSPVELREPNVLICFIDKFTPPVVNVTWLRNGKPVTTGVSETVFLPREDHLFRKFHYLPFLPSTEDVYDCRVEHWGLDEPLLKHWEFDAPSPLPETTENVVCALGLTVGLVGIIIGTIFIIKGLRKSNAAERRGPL
test.protocol: biochemical
Assay type: binding
recorded.conditions: binding inhibition assay; NB = non-binder (no dose-dependent inhibition); read-out: DRB1*1101 IC50
Where a SMILES comes first, the peptide text is derived from it.
assay.endpoint: IC50 (µM)
Numbers only, in µM.

Looking for the measured IC50 of CC[C@H](C)[C@H](NC(=O)[C@H](CC(N)=O)NC(=O)[C@H](CCC(N)=O)NC(=O)[C@H](CC(N)=O)NC(=O)[C@H](CC(N)=O)NC(=O)[C@H](Cc1ccccc1)NC(=O)[C@@H](NC(=O)[C@H](CS)NC(=O)[C@H](CC(C)C)NC(=O)[C@H](Cc1ccc(O)cc1)NC(=O)[C@H](CC(=O)O)NC(=O)[C@@H](N)Cc1ccc(O)cc1)C(C)C)C(=O)N[C@H](C(=O)N[C@@H](CO)C(=O)N[C@@H](CC(=O)O)C(=O)N[C@@H](CCCCN)C(=O)N[C@@H](CC(N)=O)C(N)=O)[C@@H](C)O [RIPR_007] (H-YDYLCVFNNQNITSDKN-NH2) , can you help?
8.65

* * *

target: HLA-DRB1*0701 (Homo sapiens, UniProt P01903+P01911, A100R/A102G/A103Q/D57E/D86V/E43K/F76Y/K127E/L162R/M171V/P40G/Q125H/Q99D/R33Q/R42Y/R54Q/S133A/S66F/T210M/V115G/Y107V/Y59L/Y89S)
test.protocol: biochemical
Format: binding
recorded.conditions: binding inhibition assay; NB = non-binder (no dose-dependent inhibition); read-out: DRB1*0701 IC50
Where a SMILES comes first, the peptide text is derived from it.
assay.endpoint: IC50 (µM)
One number for each entry, in µM.

Looking for the measured IC50 of CC(=O)N[C@@H](CCC(=O)O)C(=O)N[C@@H](CCC(=O)O)C(=O)NCC(=O)N[C@@H](Cc1ccc(O)cc1)C(=O)N[C@@H](CCCCN)C(=O)N[C@@H](CC(N)=O)C(=O)N[C@H](C(=O)N[C@@H](CCCCN)C(=O)NCC(=O)N[C@@H](CCCCN)C(=O)N[C@@H](CS)C(=O)N[C@H](C(=O)N1CCC[C@H]1C(=O)N[C@@H](CC(=O)O)C(=O)N[C@@H](CC(N)=O)C(=O)N[C@@H](CCCCN)C(N)=O)C(C)C)C(C)C [RIPR_015] (Ac-EEGYKNVKGKCVPDNK-NH2) , can you help?
9.28

* * *

target: HLA-DRB1*0101 (Homo sapiens, UniProt P01903+P01911, A100R/D57E/F55L/F60I/F76Y/I96L/L162R/M171V/P40L/Q125E/R42F/V115G/Y59C)
Construct: purchased
test.protocol: biochemical
Type: binding
recorded.conditions: binding inhibition assay; NB = non-binder (no dose-dependent inhibition); read-out: DRB1*0101 IC50
Where a SMILES comes first, the peptide text is derived from it.
Provide the recorded IC50 for the entries that follow.
One number for each entry, in µM.

>>> numeric_result("CC[C@H](C)[C@H](NC(=O)[C@H](CO)NC(=O)[C@@H](NC(=O)[C@@H]1CCCN1C(=O)[C@@H](NC(=O)[C@H](CC(=O)O)NC(C)=O)C(C)C)[C@@H](C)CC)C(=O)N[C@H](C(=O)N[C@@H](CCCNC(=N)N)C(=O)N[C@@H](CC(N)=O)C(=O)N[C@@H](CC(N)=O)C(=O)N[C@@H](CCC(=O)O)C(=O)N[C@@H](CCC(N)=O)C(=O)N[C@H](C(=O)N[C@@H](CO)C(=O)N[C@@H](CCC(N)=O)C(=O)N[C@@H](CCC(=O)O)C(=O)N[C@@H](C)C(N)=O)[C@@H](C)O)[C@@H](C)CC [EBA175_014] (Ac-DVPISIIRNNEQTSQEA-NH2)")
6.15

Okay, next one:
Looking for the measured IC50 of CSCC[C@H](NC(=O)[C@@H](NC(=O)[C@H](Cc1c[nH]cn1)NC(=O)[C@H](Cc1ccccc1)NC(=O)CNC(=O)[C@H](Cc1c[nH]cn1)NC(=O)[C@H](CCCCN)NC(C)=O)[C@@H](C)O)C(=O)N[C@@H](CC(N)=O)C(=O)N[C@@H](CC(N)=O)C(=O)N[C@@H](CC(C)C)C(=O)N[C@@H](Cc1c[nH]cn1)C(=O)NCC(=O)N[C@@H](CC(=O)O)C(=O)NCC(=O)N[C@H](C(=O)N[C@@H](CO)C(=O)N[C@@H](CCC(=O)O)C(N)=O)C(C)C [EBA175_016] (Ac-KHGFHTMNNLHGDGVSE-NH2) , can you help?
0.16

* * *

target: HLA-DRB1*0101 (Homo sapiens, UniProt P01903+P01911, A100R/D57E/F55L/F60I/F76Y/I96L/L162R/M171V/P40L/Q125E/R42F/V115G/Y59C)
Construct: purchased
test.protocol: biochemical
Type: binding
recorded.conditions: binding inhibition assay; NB = non-binder (no dose-dependent inhibition); read-out: DRB1*0101 IC50
Where a SMILES comes first, the peptide text is derived from it.
assay.endpoint: IC50 (nM)
One number for each entry, in nM.

Looking for the measured IC50 of CC[C@H](C)[C@H](NC(=O)[C@H](CC(N)=O)NC(=O)[C@H](CCC(N)=O)NC(=O)[C@H](CC(N)=O)NC(=O)[C@H](CC(N)=O)NC(=O)[C@H](Cc1ccccc1)NC(=O)[C@@H](NC(=O)[C@H](CS)NC(=O)[C@H](CC(C)C)NC(=O)[C@H](Cc1ccc(O)cc1)NC(=O)[C@H](CC(=O)O)NC(=O)[C@@H](N)Cc1ccc(O)cc1)C(C)C)C(=O)N[C@H](C(=O)N[C@@H](CO)C(=O)N[C@@H](CC(=O)O)C(=O)N[C@@H](CCCCN)C(=O)N[C@@H](CC(N)=O)C(N)=O)[C@@H](C)O [RIPR_007] (H-YDYLCVFNNQNITSDKN-NH2) , can you help?
2780

* * *

target: HLA-DRB1*1301 (Homo sapiens, UniProt P01903+P01911, A100E/A169T/K41T/L162R/M171V/P40S/Q125H/Q178H/Q39Y/Q99D/R42S/S66N/T262R/W38E/Y61H)
test.protocol: biochemical
Format: binding
recorded.conditions: binding inhibition assay; NB = non-binder (no dose-dependent inhibition); read-out: DRB1*1301 IC50
Where a SMILES comes first, the peptide text is derived from it.
assay.endpoint: pIC50
One number for each entry, as −log10 of the molar value.

Looking for the measured pIC50 of CSCC[C@H](N)C(=O)N[C@@H](CCCNC(=N)N)C(=O)N[C@@H](CCCCN)C(=O)N[C@@H](CC(C)C)C(=O)N[C@@H](Cc1ccc(O)cc1)C(=O)N[C@@H](CS)C(=O)N[C@H](C(=O)N[C@@H](CC(C)C)C(=O)N[C@@H](CC(C)C)C(=O)N[C@@H](CC(C)C)C(=O)N[C@@H](CO)C(=O)N[C@@H](C)C(=O)N[C@@H](Cc1ccccc1)C(=O)N[C@@H](CCC(=O)O)C(=O)N[C@@H](Cc1ccccc1)C(=O)N[C@H](C(=O)N[C@@H](Cc1ccc(O)cc1)C(N)=O)[C@@H](C)O)C(C)C [AMA1_001] (H-MRKLYCVLLLSAFEFTY-NH2) , can you help?
5.75

* * *

Provide the recorded IC50 for the entries that follow.
target: HLA-A*0301 (Homo sapiens)
test.protocol: biochemical
Assay type: binding
recorded.conditions: allele A*0301; fluorescence polarization competition; read-out: IC50 (nM), in vitro HLA binding affinity
Where a SMILES comes first, the peptide text is derived from it.
Dear colleague, please send the value followed by its unit.

Here is how some compounds turned out for IC50.
>>> result("CC[C@H](C)[C@H](NC(=O)[C@H](Cc1ccc(O)cc1)NC(=O)[C@H](CCC(=O)O)NC(=O)[C@H](CC(=O)O)NC(=O)[C@H](CC(N)=O)NC(=O)[C@H](CC(C)C)NC(=O)[C@@H](N)[C@@H](C)O)C(=O)N[C@H](C(=O)N[C@@H](CO)C(=O)N[C@@H](Cc1ccc(O)cc1)C(=O)O)C(C)C [CYRPA_285] (H-TLNDEYIVSY-OH)")
"304000 nM"
>>> result("CC(C)C[C@H](NC(=O)[C@H](Cc1ccccc1)NC(=O)[C@H](C)NC(=O)[C@@H](N)CO)C(=O)N1CCC[C@H]1C(=O)N[C@H](C(=O)NCC(=O)N[C@@H](C)C(=O)N[C@@H](Cc1ccccc1)C(=O)N[C@@H](CCCCN)C(=O)O)[C@@H](C)O [AMA1_377] (H-SAFLPTGAFK-OH)")
"345 nM"
>>> result("CSCC[C@H](NC(=O)[C@H](CCSC)NC(=O)[C@@H](N)CCCCN)C(=O)N[C@@H](CC(=O)O)C(=O)N[C@@H](CCC(=O)O)C(=O)N[C@@H](Cc1ccc(O)cc1)C(=O)N[C@@H](CC(N)=O)C(=O)N[C@H](C(=O)N[C@@H](CCCCN)C(=O)N[C@@H](CCCCN)C(=O)O)[C@@H](C)O [RH5_302] (H-KMMDEYNTKK-OH)")
"8480 nM"

Okay, next one:
Looking for the measured IC50 of CC[C@H](C)[C@H](NC(=O)[C@H](CC(N)=O)NC(=O)[C@H](CC(C)C)NC(=O)[C@@H](N)CCCCN)C(=O)N[C@@H](Cc1c[nH]c2ccccc12)C(=O)N[C@@H](CCCNC(=N)N)C(=O)N[C@H](C(=O)N[C@@H](Cc1ccccc1)C(=O)N[C@@H](CCC(N)=O)C(=O)N[C@@H](CCCCN)C(=O)O)[C@@H](C)O [RH5_443] (H-KLNIWRTFQK-OH) , can you help?
2500 nM
